molecular target: Full-length human PRMT1 isoform 1 (Homo sapiens); construct: GST-tagged PRMT1; experiment: PRMT1 biochemical assay (3H-SAM Flashplate, peptide substrate)
Structures can show the parent of a compound that is named as a salt.
IC50 overview

Molecule: CN(CCN)Cc1c[nH]nc1-c1cccc(Cl)c1F
IC50: < 100 nM

Molecule: CNCCN(C)Cc1c[nH]nc1-c1ccc(O)cc1
IC50: < 100 nM

Molecule: CNCCN(C)Cc1c[nH]nc1-c1ccccc1-c1ccccc1
IC50: 1010 to 3000 nM

Molecule: COCCn1cc(CN(C)CCN)c(-c2ccc(F)cc2)n1
IC50: 1010 to 3000 nM

Molecule: CNCCN(C)Cc1c[nH]nc1-c1ccc(Oc2cccc(OC)c2)cc1
IC50: < 100 nM

Molecule: CNCCN(C)Cc1cn(C2CCC2)nc1-c1ccc(OC(C)C)cc1 [Compound 254, hydrochloride]
IC50: < 100 nM

Molecule: CN(CCN1CCC1)Cc1c[nH]nc1-c1ccc(C#N)cc1
IC50: 1010 to 3000 nM

Molecule: CNCCN(C)Cc1c[nH]nc1-c1ccc(Oc2cccc(C(C)C)c2)cc1
IC50: < 100 nM

Molecule: CNCCN(C)Cc1cn(Cc2ccncc2)nc1-c1ccc(OC(C)C)cc1
IC50: < 100 nM

====

molecular target: Full-length human PRMT1 isoform 1 (Homo sapiens, UniProt Q99873); construct: GST-tagged PRMT1; experiment: PRMT1 biochemical assay (3H-SAM Flashplate, peptide substrate)
Sequence (Q99873 with tags, fused parts or gaps): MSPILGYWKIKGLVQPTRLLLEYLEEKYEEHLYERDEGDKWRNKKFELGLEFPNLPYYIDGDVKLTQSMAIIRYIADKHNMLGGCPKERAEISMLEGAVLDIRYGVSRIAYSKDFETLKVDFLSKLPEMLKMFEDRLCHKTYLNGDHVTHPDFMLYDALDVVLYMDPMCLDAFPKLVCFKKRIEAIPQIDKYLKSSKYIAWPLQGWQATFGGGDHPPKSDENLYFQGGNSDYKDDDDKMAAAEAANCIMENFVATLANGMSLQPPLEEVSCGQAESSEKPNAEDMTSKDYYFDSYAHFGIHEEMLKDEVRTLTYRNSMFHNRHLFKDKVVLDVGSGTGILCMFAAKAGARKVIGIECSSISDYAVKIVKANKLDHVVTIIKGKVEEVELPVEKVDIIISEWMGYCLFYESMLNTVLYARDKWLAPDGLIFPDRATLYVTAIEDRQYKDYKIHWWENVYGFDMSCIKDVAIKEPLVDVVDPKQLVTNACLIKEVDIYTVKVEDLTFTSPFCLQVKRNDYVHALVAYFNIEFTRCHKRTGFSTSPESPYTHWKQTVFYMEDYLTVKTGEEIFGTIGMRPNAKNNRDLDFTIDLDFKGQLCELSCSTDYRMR
IC50 overview
Test Readout: IC50

Chemical Smiles: CCNC(=O)c1ccc(-c2n[nH]cc2CN(C)CCN)cc1
Test Result: < 100 nM
--
Chemical Smiles: CNCCN(C)Cc1c[nH]nc1-c1ccc(OC(C)C)c(F)c1
Test Result: < 100 nM
--
Chemical Smiles: CN(CCN)Cc1n[nH]cc1-c1ccc(F)cc1
Test Result: < 100 nM
--
Chemical Smiles: CNCCN(C)Cc1c[nH]nc1-c1cccc2ccccc12
Test Result: < 100 nM
--
Chemical Smiles: CNCCN(C)Cc1c[nH]nc1-c1ccc(C(F)(F)F)cc1
Test Result: < 100 nM
--
Chemical Smiles: CNCCN(C)Cc1cn[nH]c1-c1cc(F)cc(F)c1
Test Result: < 100 nM
--
Chemical Smiles: Cc1[nH]nc(-c2ccc(F)cc2)c1CN(C)CCN
Test Result: 101 to 1000 nM
--
Chemical Smiles: CNCCN(C)Cc1cn(C(C)C)nc1-c1ccc(F)cc1
Test Result: 3010 to 10000 nM
--
Chemical Smiles: CC(C)Cc1cccc(-c2n[nH]cc2CN(C)CCN)c1
Test Result: < 100 nM
--
Chemical Smiles: CNCCN(C)Cc1c[nH]nc1-c1ccc2ccccc2c1
Test Result: < 100 nM

====

biological target: Full-length human PRMT8 (Homo sapiens); construct: Full-length human PRMT8 (NM_019854.4) isoform 1 transcript clone; assay: PRMT8 biochemical assay (3H-SAM Flashplate, peptide substrate)
Sequence (Q9NR22 whole entry, canonical isoform): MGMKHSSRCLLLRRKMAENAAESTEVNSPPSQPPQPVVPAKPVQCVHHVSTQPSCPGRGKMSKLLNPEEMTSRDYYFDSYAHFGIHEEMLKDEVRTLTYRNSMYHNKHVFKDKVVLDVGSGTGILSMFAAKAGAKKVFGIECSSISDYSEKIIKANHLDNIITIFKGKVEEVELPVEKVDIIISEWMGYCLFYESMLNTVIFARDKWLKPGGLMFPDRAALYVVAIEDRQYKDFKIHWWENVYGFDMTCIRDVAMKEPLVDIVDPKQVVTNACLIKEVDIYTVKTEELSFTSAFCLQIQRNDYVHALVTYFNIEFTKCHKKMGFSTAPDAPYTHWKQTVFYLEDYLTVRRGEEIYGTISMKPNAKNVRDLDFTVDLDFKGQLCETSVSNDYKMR
IC50 overview

Compound: CN(CCN)Cc1c[nH]nc1-c1ccc(C(F)(F)F)cc1 [Compound 92]
IC50: 0.101 to 1 µM
//
Compound: CN(CCN)Cc1c[nH]nc1-c1ccc(OCC(F)(F)F)cc1 [Compound 96]
IC50: 0.101 to 1 µM
//
Compound: CNCCN(C)Cc1c[nH]nc1-c1ccc(F)cc1F [Compound 49]
IC50: 0.101 to 1 µM
//
Compound: CN(CCN)Cc1c[nH]nc1-c1ccc(OCCN2CCOCC2)cc1 [Compound 172]
IC50: 3.01 to 10 µM
//
Compound: CC(C)Oc1cccc(-c2n[nH]cc2CN(C)CCN)c1 [Compound 187]
IC50: 1.01 to 3 µM
//
Compound: CC(C)CN1C(=O)COc2cc(-c3n[nH]cc3CN(C)CCN)ccc21 [Compound 193]
IC50: 0.101 to 1 µM
//
Compound: CN(CCN)Cc1c(-c2ccc(C#N)cc2)ncn1C [Compound 222]
IC50: 3.01 to 10 µM
//
Compound: CNCCN(C)Cc1c[nH]nc1-c1ccc(Oc2ccccc2)cc1 [Compound 37]
IC50: < 0.1 µM
//
Compound: CNCCN(C)Cc1c[nH]nc1-c1ccc(OC)cc1OC [Compound 55]
IC50: 3.01 to 10 µM
//
Compound: CN(CCN)Cc1c[nH]nc1-c1ccccc1 [Compound 73]
IC50: 0.101 to 1 µM
//
Compound: CN(CCN)Cc1n[nH]cc1-c1ccc(C(F)(F)F)cc1 [Compound 103]
IC50: 0.101 to 1 µM
//
Compound: COc1ccc(-c2n[nH]cc2CN(C)CCN)cc1 [Compound 153]
IC50: 0.101 to 1 µM
//
Compound: CN(CCN)Cc1c[nH]nc1-c1cc(Cl)ccc1F [Compound 156]
IC50: 1.01 to 3 µM
//
Compound: CNCCN(C)Cc1cn(C)nc1-c1ccc(OC(C)C)c(Cl)c1 [Compound 206]
IC50: 0.101 to 1 µM
//
Compound: Cc1ccc(Cl)c(-c2n[nH]cc2CN(C)CCN)c1 [Compound 91]
IC50: 3.01 to 10 µM
//
Compound: CNCCN(C)Cc1c[nH]nc1-c1ccc(F)cc1 [Compound 2]
IC50: 0.101 to 1 µM
//
Compound: CNCCN(C)Cc1cnn(CC2CCOCC2)c1-c1ccc(F)cc1 [Compound 12]
IC50: > 10 µM
//
Compound: CN(CCN)Cc1c[nH]nc1-c1ccc(C2CCOCC2)cc1 [Compound 98]
IC50: 0.101 to 1 µM
//
Compound: CN(CCN(C)C1CC1)Cc1c[nH]nc1-c1ccc(C#N)cc1 [Compound 184]
IC50: 3.01 to 10 µM
//
Compound: CNCCN(C)Cc1n[nH]cc1-c1ccc(OC(C)C)c(F)c1 [Compound 210]
IC50: 0.101 to 1 µM
//
Compound: CN(CCN)Cc1c[nH]nc1-c1cc(F)cc(Cl)c1 [Compound 121]
IC50: 0.101 to 1 µM
//
Compound: CNCCN(C)Cc1c[nH]nc1-c1cccc(OC)c1 [Compound 24]
IC50: 0.101 to 1 µM
//
Compound: Cc1ccc(C#N)cc1-c1n[nH]cc1CN(C)CCN [Compound 158]
IC50: > 10 µM
//
Compound: CNCCN(C)Cc1c[nH]nc1-c1cccc(OC(F)(F)F)c1 [Compound 39]
IC50: 0.101 to 1 µM
//
Compound: Cc1ccc(-c2n[nH]cc2CN(C)CCN)c(C)c1 [Compound 88]
IC50: 1.01 to 3 µM
//
Compound: CNCCN(C)Cc1c[nH]nc1-c1ccccc1F [Compound 48]
IC50: 1.01 to 3 µM
//
Compound: CN(CCN)Cc1n[nH]cc1-c1ccc(C2CCOCC2)cc1 [Compound 145]
IC50: 0.101 to 1 µM
//
Compound: CNCCN(C)Cc1cn(C(C)C)nc1-c1ccc(F)cc1 [Compound 15]
IC50: > 10 µM
//
Compound: COCCn1ncc(CN(C)CCN(C)C)c1-c1ccc(F)cc1 [Compound 64]
IC50: > 10 µM
//
Compound: CCCc1ccc(-c2n[nH]cc2CN(C)CCNC)cc1 [Compound 20]
IC50: < 0.1 µM
//
Compound: CN(CCN)Cc1c[nH]nc1-c1cc(F)cc(F)c1 [Compound 111]
IC50: 0.101 to 1 µM
//
Compound: Cc1c(F)cccc1-c1n[nH]cc1CN(C)CCN [Compound 129]
IC50: 0.101 to 1 µM
//
Compound: CN(CCN)Cc1c(-c2ccc(C#N)cc2)cnn1C [Compound 84]
IC50: > 10 µM
//
Compound: CCCN(CCN)Cc1c[nH]nc1-c1ccc(F)cc1 [Compound 63]
IC50: 3.01 to 10 µM
//
Compound: Cc1cc(Cl)ccc1-c1n[nH]cc1CN(C)CCN [Compound 133]
IC50: 0.101 to 1 µM
//
Compound: CC(C)CN(C)C(=O)c1ccc(-c2n[nH]cc2CN(C)CCN)cc1 [Compound 164]
IC50: 1.01 to 3 µM
//
Compound: CN(CCN)Cc1c[nH]nc1-c1cccc(C#N)c1 [Compound 70]
IC50: 1.01 to 3 µM
//
Compound: CNCCN(C)Cc1c[nH]nc1-c1ccc(OCCCOC)cc1 [Compound 209]
IC50: 0.101 to 1 µM
//
Compound: COc1ccc(-c2n[nH]cc2CN(C)CCN)cc1F [Compound 134]
IC50: 0.101 to 1 µM
//
Compound: CN(CCN)Cc1cn(CC(O)CO)nc1-c1ccc(F)cc1 (centres unmarked) [Compound 76]
IC50: > 10 µM
//
Compound: CNCCN(C)Cc1c[nH]nc1-c1cccc(O)c1 [Compound 26]
IC50: 1.01 to 3 µM
